tested on: Protease (Human immunodeficiency virus 1)
Sequence (Q9YQ12 whole entry): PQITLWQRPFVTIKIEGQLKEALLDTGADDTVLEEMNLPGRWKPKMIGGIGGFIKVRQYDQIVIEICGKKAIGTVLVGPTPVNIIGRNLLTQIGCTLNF
experiment description: Inhibition of HIV1 protease
experimental endpoint: pIC50
One number for each entry, as −log10 of the molar value.

Worked examples, 3 compounds total:
line_notation=CC(=O)N[C@H](COCc1ccccc1)C(=O)N[C@@H](Cc1ccccc1)[C@H](O)C(=O)N1CSC(C)(C)[C@H]1C(=O)NCc1ccccc1C experimental_endpoint=pIC50 observed_measurement=9.41
line_notation=COc1ccc(CSC[C@@H](NS(C)(=O)=O)C(=O)N[C@@H](Cc2ccccc2)[C@H](O)C(=O)N2CSC(C)(C)[C@H]2C(=O)NCc2ccccc2C)cc1 experimental_endpoint=pIC50 observed_measurement=9.59
line_notation=CC(=O)N[C@H](CS(=O)(=O)c1ccc2ccccc2c1)C(=O)N[C@@H](Cc1ccccc1)[C@H](O)C(=O)N1CSC(C)(C)[C@H]1C(=O)NCc1ccccc1C experimental_endpoint=pIC50 observed_measurement=10.07

Provide pIC50 for all items below, preserving their order.
1. Cc1ccccc1CNC(=O)[C@H]1N(C(=O)[C@@H](O)[C@H](Cc2ccccc2)NC(=O)[C@@H](CS(=O)(=O)c2ccc(Cl)cc2)NS(C)(=O)=O)CSC1(C)C
2. CC(=O)N[C@H](CS(=O)(=O)c1cccc2ccccc12)C(=O)N[C@@H](Cc1ccccc1)[C@H](O)C(=O)N1CSC(C)(C)[C@H]1C(=O)NCc1ccccc1C
3. CC(=O)N[C@H](CS(=O)(=O)c1ccc(Cl)cc1)C(=O)N[C@@H](Cc1ccccc1)[C@H](O)C(=O)N1CSC(C)(C)[C@H]1C(=O)NCc1ccccc1C

A.
9.96
10.05
9.66

Provide pIC50 for all items below, preserving their order.
1. Cc1ccccc1CNC(=O)[C@H]1N(C(=O)[C@@H](O)[C@H](Cc2ccccc2)NC(=O)[C@@H](COCc2ccccc2)NS(C)(=O)=O)CSC1(C)C
2. COc1ccc(CSC[C@@H](NC(C)=O)C(=O)N[C@@H](Cc2ccccc2)[C@H](O)C(=O)N2CSC(C)(C)[C@H]2C(=O)NCc2ccccc2C)cc1

A.
[9.25, 9.74]
